- System: human plasma
- methodDescription: Plasma protein binding, human plasma (equilibrium dialysis)
- Type: in vitro ADME
- testConditions: test concentration 3 μg/mL
The following compounds are listed with their measured Human Plasma Protein Binding (%) values.
Give the value in % but do not write % after it.

Solved cases below.
compound: CC1CNC(C2CCCCC2)C(=O)N(C)C(C)C(=O)NC(Cc2ccc(O)cc2)C(=O)NCCCC2CCCCC2O1 (mixture of isomers)
measurementKind: Human Plasma Protein Binding (%)
reading: 91.6

compound: CC1CNC(C2CC2)C(=O)N(C)C(C)C(=O)NC(Cc2ccc(O)cc2)C(=O)NCCCC2CCCCC2O1 (mixture of isomers)
measurementKind: Human Plasma Protein Binding (%)
reading: 94.3

Lab note: next compound to report on.
Problem: Data request, read-out Human Plasma Protein Binding (%), for CC1CNC(C2CC2)C(=O)N(C)C(C)C(=O)NC(CC(C)(C)C)C(=O)NCCCC2CCCCC2O1 (mixture of isomers)
Solution: 77.4

====

- testedOn: human growth hormone secretagogue receptor (hGHS-R1a) (Homo sapiens)
- Sequence (Q92847 whole entry): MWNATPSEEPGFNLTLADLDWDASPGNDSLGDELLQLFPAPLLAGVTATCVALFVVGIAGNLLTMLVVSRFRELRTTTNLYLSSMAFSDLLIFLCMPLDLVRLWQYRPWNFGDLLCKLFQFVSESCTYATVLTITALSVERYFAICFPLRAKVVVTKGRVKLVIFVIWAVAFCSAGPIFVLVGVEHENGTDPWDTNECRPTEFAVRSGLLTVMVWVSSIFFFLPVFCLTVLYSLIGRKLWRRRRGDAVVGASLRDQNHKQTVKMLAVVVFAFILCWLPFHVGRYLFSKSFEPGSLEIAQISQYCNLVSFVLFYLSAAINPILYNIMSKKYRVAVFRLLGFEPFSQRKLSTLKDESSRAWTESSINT
- methodDescription: Competitive radioligand binding assay (ghrelin receptor), standard method A
measurementKind: Ki

Solved cases below.
compound: CC(C)C[C@H]1NC(=O)[C@@H](C)N(C)C(=O)[C@H](C2CCCCC2)NC[C@H]2CCc3cccc(c3O2)CCCNC1=O
Ki: ≤ 1 nM

compound: CCC(C)[C@@H]1NCC(C)(C)Oc2ccccc2CCCNC(=O)[C@@H](Cc2ccccc2)NC(=O)[C@@H](C)N(C)C1=O (stereo partly shown)
Ki: ≤ 100 nM

compound: CC(C)C[C@H]1NC(=O)[C@@H](C)N(C)C(=O)[C@H](C2CC2)NC[C@@H](C)Oc2ccccc2CC[C@H](C)NC1=O
Ki: ≤ 10 nM

Lab note: next compound to report on.
Problem: Data request, read-out Ki, for `C[C@@H]1CN[C@@H](C2CC2)C(=O)N(C)[C@H](C)C(=O)N[C@H](Cc2ccc(Cl)cc2)C(=O)NCCCc2ccc(F)cc2O1`
Solution: ≤ 100 nM

====

The following molecules are listed with their measured pKi values.
- testedOn: human growth hormone secretagogue receptor (hGHS-R1a) (Homo sapiens)
- methodDescription: Competitive radioligand binding assay (ghrelin receptor), standard method A
- testConditions: binding activity at the human ghrelin receptor, standard method A
- Source text: A competitive binding assay at the human growth hormone secretagogue receptor (hGHS-R1a) can be carried out analogously to assays described in the literature. (Bednarek, M. A.; et al. J. Med. Chem. 2000, 43, 4370-4376; Palucki, B. L.; et al. Bioorg. Med. Chem. Lett. […], 11, 1955-1957.) See also U.S. patent application Ser. Nos. 11/149,512 and 11/149,731. Binding activity at the gherlin receptor for representative compounds of the present invention is shown in the Examples below.
pKi: −log10 of the molar value.

Solved cases below.
givenSmiles: C[C@@H]1CN[C@@H](C2CC2)C(=O)N(C)[C@H](C)C(=O)N[C@H](Cc2ccc(F)cc2)C(=O)N[C@@H](C)CCc2ccccc2O1
testedOn: human growth hormone secretagogue receptor (hGHS-R1a) (Homo sapiens)
pKi: ≥ 8.00

givenSmiles: C[C@@H]1C(=O)N[C@H](Cc2ccccc2)C(=O)NCCCc2ccc(F)cc2OCCN[C@@H](C2CC2)C(=O)N1C
testedOn: human growth hormone secretagogue receptor (hGHS-R1a) (Homo sapiens)
pKi: ≥ 7.00

givenSmiles: C[C@@H]1C(=O)N[C@H](Cc2ccc(O)cc2)C(=O)NCCCc2nccc3c2O[C@H](CC3)CN[C@@H](C2CC2)C(=O)N1C
testedOn: human growth hormone secretagogue receptor (hGHS-R1a) (Homo sapiens)
pKi: ≥ 7.00

Problem: Data request, read-out pKi, for `C[C@@H]1C(=O)N[C@H](Cc2ccc(F)cc2)C(=O)NCCCc2cccc3c2O[C@@H](CC3)CN[C@@H](C2CC2)C(=O)N1C`
Solution: ≥ 7.00

Problem: Also, `C[C@@H]1CN[C@@H](C2CC2)C(=O)N(C)[C@H](C)C(=O)N[C@H](Cc2ccccn2)C(=O)NCCCc2ccccc2O1` please.
Solution: ≥ 7.00

Problem: Also, `C[C@@H]1C(=O)N[C@H](Cc2ccc(O)cc2)C(=O)NCCCc2ccc(F)c(F)c2OCCN[C@@H](C2CC2)C(=O)N1C` please.
Solution: ≥ 8.00

====

- methodDescription: Pharmacokinetic analysis (oral bioavailability, elimination half-life) in the rat
- Assay type: in vivo
- testConditions: oral administration, 8 mg/kg dose, HPLC-MS
Returns 1 if the recorded Elimination Half-life (t1/2, rat, min) is greater than or equal to 80 min, and 0 otherwise.

Solved entries (count: 5):
molecule: CC1CNC(C2CC2)C(=O)N(C)C(C)C(=O)NC(Cc2ccc(O)cc2)C(=O)NCCCC2CCCCC2O1 (mixture of isomers) [Compound 826]
classAssignment: 0
//
molecule: CC(C)C[C@H]1NC(=O)[C@@H](C)N(C)C(=O)[C@H](C2CC2)NC[C@@H](C)Oc2ccccc2CCCNC1=O [Compound 968]
classAssignment: 1
//
molecule: CC(C)CC1NC(=O)C(C)N(C)C(=O)C(C2CC2)NCC(C)OC2CCCCC2CCCNC1=O (mixture of isomers) [Compound 825]
classAssignment: 1
//
molecule: C[C@@H]1CN[C@@H](C2CC2)C(=O)N(C)[C@H](C)C(=O)N[C@H](Cc2ccc(Cl)cc2)C(=O)NCCCc2ccccc2O1 [Compound 862]
classAssignment: 0
//
molecule: CC(C)C[C@H]1NC(=O)[C@@H](C)N(C)C(=O)[C@H](C2CCCCC2)NC[C@@H](C)Oc2cccnc2CCCNC1=O [Compound 1061]
classAssignment: 0

Okay, next one:
Problem: Record CC(C)C[C@H]1NC(=O)[C@@H](C)N(C)C(=O)[C@H](C2CC2)NC[C@H]2CCc3cccc(c3O2)CCCNC1=O [Compound 802] ; criterion: Elimination Half-life (t1/2, rat, min) no lower than 80 min. Met?
Solution: 1

====

- System: fasted rats
- methodDescription: Gastric emptying in fasted rat model, standard method E
- Type: in vivo
- testConditions: dose 3 mg/kg, average where repeated
The following molecules are listed with their measured Percent Increase in Gastric Emptying After Oral Administration values.
Lab note: write values as number then unit, every time.

Solved cases below.
molecule: CC(C)C[C@H]1NC(=O)[C@@H](C)N(C)C(=O)[C@H](C2CC2)NC[C@@H](C)Oc2ccccc2CC[C@H](C)NC1=O
reading: 31%

molecule: CC1CNC(C2CC2)C(=O)N(C)C(C)C(=O)NC(CC(C)(C)C)C(=O)NCCCC2CCCCC2O1 (mixture of isomers)
reading: 6%

Lab note: next molecule to report on.
Problem: Data request, read-out Percent Increase in Gastric Emptying After Oral Administration, for `CC(C)C[C@H]1NC(=O)[C@@H](C)N(C)C(=O)[C@H](C2CC2)NCCOc2cc(F)ccc2CC[C@H](C)NC1=O`
Solution: 6%

====

- testedOn: CYP3A4 (Homo sapiens)
- Construct: purchased BD Gentest, Becton-Dickinson (Supersomes); host or cells: insect cells
- Sequence (P08684 whole entry): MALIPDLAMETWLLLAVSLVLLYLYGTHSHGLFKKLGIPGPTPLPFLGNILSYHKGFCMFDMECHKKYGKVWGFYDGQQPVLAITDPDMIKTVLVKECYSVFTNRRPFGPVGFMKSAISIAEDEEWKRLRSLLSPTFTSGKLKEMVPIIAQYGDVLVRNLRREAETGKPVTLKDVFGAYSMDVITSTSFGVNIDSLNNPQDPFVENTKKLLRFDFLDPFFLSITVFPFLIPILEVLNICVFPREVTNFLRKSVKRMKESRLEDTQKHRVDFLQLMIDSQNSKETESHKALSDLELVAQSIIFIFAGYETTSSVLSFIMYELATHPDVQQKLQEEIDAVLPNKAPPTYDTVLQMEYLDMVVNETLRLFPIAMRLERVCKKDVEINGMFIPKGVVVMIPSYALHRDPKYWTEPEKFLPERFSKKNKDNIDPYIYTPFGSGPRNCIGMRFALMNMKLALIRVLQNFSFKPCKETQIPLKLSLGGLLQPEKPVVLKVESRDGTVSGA
- methodDescription: Cytochrome P450 inhibition, CYP3A4 (two substrates)
- Type: in vitro ADME
- testConditions: CYP3A4, substrate BQ; read-out: IC50 3A4 (BQ)
measurementKind: pIC50
The meaning of pIC50 here: minus log10 of the concentration in molar units.

Solved cases below.
compound: CC(C)CC1NC(=O)C(C)N(C)C(=O)C(C2CC2)NCC(C)OC2CCCCC2CCCNC1=O (mixture of isomers)
pIC50: 5.17
//
compound: C[C@@H]1C(=O)N[C@H](Cc2ccc(O)cc2)C(=O)NCCCc2ccc(F)cc2OCCN[C@@H](C2CC2)C(=O)N1C
pIC50: 5.82
//
compound: CC(C)CC1NC(=O)C(C)N(C)C(=O)C(C2CCCCC2)NCC(C)OC2CCCCC2CCCNC1=O (mixture of isomers)
pIC50: 5.05
//
compound: C[C@@H]1C(=O)N[C@H](Cc2ccc(O)cc2)C(=O)NCCCc2cccc3c2O[C@H](CC3)CN[C@@H](C2CC2)C(=O)N1C
pIC50: 4.94
//
compound: CC1NC(C2CC2)C(=O)N(C)C(C)C(=O)NC(Cc2ccc(O)cc2)C(=O)NCCCc2ccccc2OC1C (stereo not drawn)
pIC50: 4.86

Problem: Data request, read-out pIC50, for CC1CNC(C2CC2)C(=O)N(C)C(C)C(=O)NC(Cc2ccc(O)cc2)C(=O)NCCCC2CCCCC2O1 (mixture of isomers)
Solution: 5.35

====

The following compounds are listed with their measured pIC50 values.
- testedOn: CYP2C8 (Homo sapiens)
- Construct: purchased BD Gentest, Becton-Dickinson (Supersomes); host or cells: insect cells
- Sequence (P10632 whole entry): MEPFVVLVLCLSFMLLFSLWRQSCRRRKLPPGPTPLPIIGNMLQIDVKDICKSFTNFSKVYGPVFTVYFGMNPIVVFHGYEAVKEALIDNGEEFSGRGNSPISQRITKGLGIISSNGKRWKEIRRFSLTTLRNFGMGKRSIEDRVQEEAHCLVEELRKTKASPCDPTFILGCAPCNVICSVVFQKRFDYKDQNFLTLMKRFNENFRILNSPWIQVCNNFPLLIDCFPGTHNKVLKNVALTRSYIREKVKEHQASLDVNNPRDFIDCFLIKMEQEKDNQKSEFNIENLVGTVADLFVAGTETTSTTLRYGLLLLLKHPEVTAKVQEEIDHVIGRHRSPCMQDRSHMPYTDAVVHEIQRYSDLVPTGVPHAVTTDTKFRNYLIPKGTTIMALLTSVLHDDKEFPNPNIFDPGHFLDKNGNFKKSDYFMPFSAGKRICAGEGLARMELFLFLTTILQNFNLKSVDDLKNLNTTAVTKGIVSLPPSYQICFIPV
- methodDescription: Cytochrome P450 inhibition, CYP2C8
- Assay type: in vitro ADME
- testConditions: read-out: IC50 2C8
pIC50: −log10 of the molar value.

Solved cases below.
compound: CC(C)C[C@H]1NC(=O)[C@@H](C)N(C)C(=O)[C@H](C2CC2)NCCOc2c(ccc(F)c2F)CCCNC1=O
measurementKind: pIC50
reading: < 4.00
--
compound: CC1CNC(C2CC2)C(=O)N(C)C(C)C(=O)NC(Cc2ccc(O)cc2)C(=O)NCCCC2CCCCC2O1 (mixture of isomers)
measurementKind: pIC50
reading: < 4.00
--
compound: CC(C)C[C@H]1NC(=O)[C@@H](C)N(C)C(=O)[C@H](C2CC2)NCCOc2cc(F)ccc2CC[C@H](C)NC1=O
measurementKind: pIC50
reading: < 4.00
--
compound: C[C@@H]1C(=O)N[C@H](Cc2ccc(O)cc2)C(=O)NCCCc2cccc3c2O[C@H](CC3)CN[C@@H](C2CC2)C(=O)N1C
measurementKind: pIC50
reading: 4.26
--
compound: CC(C)CC1NC(=O)C(C)N(C)C(=O)C(C2CCCCC2)NCC(C)OC2CCCCC2CCCNC1=O (mixture of isomers)
measurementKind: pIC50
reading: < 4.00
--
compound: C[C@@H]1C(=O)N[C@H](Cc2ccc(O)cc2)C(=O)NCCCc2ccc(F)cc2OCCN[C@@H](C2CC2)C(=O)N1C
measurementKind: pIC50
reading: < 4.00
--
compound: CC(C)C[C@H]1NC(=O)[C@@H](C)N(C)C(=O)[C@H](C2CC2)NCCOc2cc(F)ccc2CCCNC1=O
measurementKind: pIC50
reading: < 4.00
--
compound: CC(C)CC1NC(=O)C(C)N(C)C(=O)C(C2CC2)NCC(C)OC2CCCCC2CCCNC1=O (mixture of isomers)
measurementKind: pIC50
reading: < 4.00

Lab note: next compound to report on.
Problem: Query for CYP2C8 (Homo sapiens): what pIC50 does the record show for CC1NC(C2CC2)C(=O)N(C)C(C)C(=O)NC(Cc2ccc(O)cc2)C(=O)NCCCc2ccccc2OC1C (stereo not drawn) ?
Solution: < 4.00
